- protocol details: Oral bioavailability in Rattus norvegicus (rat)
- Format: ADME, organism-based
- conditions used: in vivo
measurement name: bioavailability (%)

> print(dat)
                             smiles.input  unit.info  measured.number
1  C[C@H]1CN(c2ccc(C(F)(F)F)c3ccoc23)CCN1          %               83

* * *

- test target: 5-hydroxytryptamine receptor 2C (Homo sapiens, UniProt P28335)
- Sequence (P28335 whole entry): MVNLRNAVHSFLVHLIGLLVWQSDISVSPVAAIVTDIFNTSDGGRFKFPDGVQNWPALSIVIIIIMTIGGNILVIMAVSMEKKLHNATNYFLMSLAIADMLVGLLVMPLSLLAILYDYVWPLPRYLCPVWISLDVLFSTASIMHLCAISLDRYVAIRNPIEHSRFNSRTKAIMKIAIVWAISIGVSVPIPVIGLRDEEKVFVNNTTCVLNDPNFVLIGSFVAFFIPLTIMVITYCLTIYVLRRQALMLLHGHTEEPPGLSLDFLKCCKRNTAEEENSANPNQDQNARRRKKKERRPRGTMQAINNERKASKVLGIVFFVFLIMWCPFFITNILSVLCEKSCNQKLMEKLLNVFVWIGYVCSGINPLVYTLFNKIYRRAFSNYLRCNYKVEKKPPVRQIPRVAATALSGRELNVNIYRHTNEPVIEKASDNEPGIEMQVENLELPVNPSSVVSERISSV
- protocol details: Agonist activity at Homo sapiens (human) 5-HT2C receptor assessed as calcium mobilization by cell based assay
- Format: functional
pEC50: −log10 of the molar value.
measurement name: pEC50

> print(dat)
                                   molecule  measured.number
1  Cc1c2n(c3c(C)c(Cl)ccc13)C(C)NCC2 (stereo unspecified)             9.40

* * *

- protocol details: Toxicity in po dosed maximal electroshock-induced seizure Rattus norvegicus (rat) model
- Format: organism-based
- conditions used: in vivo
List of TD50 values.
measurement name: TD50

> print(dat)
                                   compound  measurement.name       result
1  Cc1cc(NC2=CC(=O)C(C(=O)OC(C)(C)C)C(C)C2)no1 (stereo not drawn)              TD50  > 500 mg/kg
2          CC(=O)NN(C(=O)NCc1ccccc1)c1nccs1              TD50  > 250 mg/kg
3  CCOC(=O)C1C(=O)C=C(Nc2cc(C)on2)CC1C (stereo not drawn)              TD50  > 500 mg/kg

* * *

- test target: 5-hydroxytryptamine receptor 2C (Homo sapiens, UniProt P28335)
- protocol details: Agonist activity at Homo sapiens (human) 5-HT2C receptor
measurement name: EC50

> print(dat)
                                   compound  measurement.name    result
1  C1CC2CNCCN3C2C(C1)[C@H]1CCC[C@H]13 (some centres not stated)              EC50  0.076 µM
2  Clc1ccc(-c2ccc(-c3cc4c5c(c3)[C@@H]3CNC[C@@H]3N5CCCS4)cc2)c(Cl)c1              EC50  0.003 µM
